assay protocol: in vitro
protocol conditions: human, A-375 cells
Description: Cytotoxicity against human A-375 cells assessed as cell viability at 50 uM incubated for 72 hrs by MTT assay relative to control
parameter: viability at 72 h, 50 µM (%)
Provide only the numeric value, understood in %.

Input: Given the molecule "O=C(/C=C/c1ccc([N+](=O)[O-])cc1)N1CCN(c2ccc(F)c(Cl)c2)CC1" , what is its reported viability at 72 h, 50 µM?
Output: 85.4

Input: What value of viability at 72 h, 50 µM has been reported for the following molecule? "COc1cccc(/C=C/C(=O)N2CCN(c3ccc(F)c(Cl)c3)CC2)c1"
Output: 54

Input: Suppose we examine the molecule "COc1ccc(Cl)cc1/C=C/C(=O)N1CCN(c2ccc(F)c(Cl)c2)CC1" ; what viability at 72 h, 50 µM value has been reported?
Output: 72.6

Input: # viability at 72 h, 50 µM lookup, item "O=C(/C=C/c1cccc([N+](=O)[O-])c1)N1CCN(c2ccc(F)c(Cl)c2)CC1"
Output: 87.2

Input: Consider the molecule shown here: "COc1ccc(/C=C/C(=O)N2CCN(c3ccc(F)c(Cl)c3)CC2)cc1[N+](=O)[O-]" What is its recorded viability at 72 h, 50 µM?
Output: 93.5

Input: Quick check: viability at 72 h, 50 µM of "COc1cccc(/C=C/C(=O)N2CCN(c3ccc(F)c(Cl)c3)CC2)c1Cl" ?
Output: 69.6

---

assay protocol: Acute toxicity in zebra fish embryos assessed as lack of heart beat at 25 to 100 uM measured after 24 hrs by stereomicroscope analysis
Type: tissue-based, Danio rerio
protocol conditions: zebrafish, dose 25-100 µM
parameter: Activity

compound_string=O=C(/C=C/c1cccc([N+](=O)[O-])c1)N1CCN(c2ccc(F)c(Cl)c2)CC1 parameter=Activity measured_value=Non-Toxic
compound_string=COc1ccc(Cl)cc1/C=C/C(=O)N1CCN(c2ccc(F)c(Cl)c2)CC1 parameter=Activity measured_value=Non-Toxic
compound_string=COc1cccc(/C=C/C(=O)N2CCN(c3ccc(F)c(Cl)c3)CC2)c1Cl parameter=Activity measured_value=Toxic
compound_string=O=C(/C=C/c1ccc(Cl)cc1)N1CCN(c2ccc(F)c(Cl)c2)CC1 parameter=Activity measured_value=Non-Toxic

---

experimental target: Mushroom tyrosinase (Agaricus bisporus, UniProt O42713+Q00024+C7FF04+C7FF05)
assay protocol: Inhibition of mushroom tyrosinase using L-DOPA as substrate preincubated with substrate for 10 mins followed by addition of enzyme and measured for 5 mins by spectrophotometric analysis
Could you please report measured log10(IC50) for the items listed next?
Hi team, quick reminder: these entries are log10 of IC50 (µM).

Input: Entry "COc1cccc(/C=C/C(=O)N2CCN(c3ccc(F)c(Cl)c3)CC2)c1Cl" : reported log10(IC50) = ?
Output: -0.92

Input: // log10(IC50) lookup, key: "COc1ccc(/C=C/C(=O)N2CCN(c3ccc(F)c(Cl)c3)CC2)cc1N"
Output: -0.28

Input: Item "COc1ccc(/C=C/C(=O)N2CCN(c3ccc(F)c(F)c3)CC2)cc1[N+](=O)[O-]" has what recorded log10(IC50)?
Output: 1.19

Input: Look at this compound and give its reported log10(IC50). "COc1ccc(/C=C/C(=O)N2CCN(c3ccc(F)cc3)CC2)cc1N"
Output: 1.25

Input: Which log10(IC50) is listed for "O=C(/C=C/c1ccc(Cl)cc1)N1CCN(c2ccc(F)c(Cl)c2)CC1" ?
Output: -0.48

Input: # query: log10(IC50) of entry "O=C(/C=C/c1ccc(Cl)cc1)N1CCN(c2ccc(F)cc2)CC1"
Output: 1.15

Input: Looking for the measured log10(IC50) of "COc1cccc(/C=C/C(=O)N2CCN(c3ccc(F)c(Cl)c3)CC2)c1" , can you help?
Output: -0.60

Input: What value of log10(IC50) has been reported for the following compound? "COc1ccc(/C=C/C(=O)N2CCN(c3ccc(F)c(F)c3)CC2)cc1N"
Output: 0.84

Input: Looking for the measured log10(IC50) of "COc1ccc(/C=C/C(=O)N2CCN(Cc3ccccc3)CC2)cc1N" , can you help?
Output: 1.75

Input: May I ask what log10(IC50) has been recorded for "O=C(/C=C/c1ccc([N+](=O)[O-])cc1)N1CCN(c2ccc(F)c(Cl)c2)CC1" ?
Output: -0.46

Input: Requested read-out: log10(IC50). Entry: "COc1cccc(/C=C/C(=O)N2CCN(c3ccc(F)cc3)CC2)c1"
Output: 1.00

Input: Fill in: log10(IC50) of "O=C(/C=C/c1ccc2c(c1)OCO2)N1CCN(c2cccc(Cl)c2)CC1" is ___
Output: 1.53
